MEASUREMENT PROTOCOL: AUC in Sprague-Dawley rat at 1.04 mg/kg, po
Assay type: ADME, organism-based
Set-up: dose 1.04 mg/kg
COND: in vivo
MEASURED PARAMETER: AUC (µM·h)
One number for each entry, in µM·h.

Prompt: What does the data say about its AUC? Entry: "C[C@@H]1CCC[C@H](n2cnc(-c3cc(Cl)ccc3-n3cc(Cl)nn3)cc2=O)c2cc(ccn2)-c2c(cnn2C(F)F)NC1=O"
Response: 0.7

====

So I've got a bunch of molecules here, and I need their Ki values.
ASSAYED SYSTEM: Coagulation factor XI (Homo sapiens, UniProt P03951)
Sequence (P03951 19-387 limits assumed): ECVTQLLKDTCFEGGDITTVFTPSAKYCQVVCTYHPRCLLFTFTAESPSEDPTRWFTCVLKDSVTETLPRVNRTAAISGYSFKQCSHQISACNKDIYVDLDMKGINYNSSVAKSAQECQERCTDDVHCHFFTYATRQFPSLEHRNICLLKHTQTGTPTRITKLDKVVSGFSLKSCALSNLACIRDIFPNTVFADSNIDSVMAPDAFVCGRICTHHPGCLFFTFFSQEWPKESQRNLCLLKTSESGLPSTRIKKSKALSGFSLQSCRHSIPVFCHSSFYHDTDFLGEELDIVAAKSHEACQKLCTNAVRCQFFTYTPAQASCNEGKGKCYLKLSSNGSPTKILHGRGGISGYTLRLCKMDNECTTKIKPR
Sequence (P03951 388-625 limits assumed): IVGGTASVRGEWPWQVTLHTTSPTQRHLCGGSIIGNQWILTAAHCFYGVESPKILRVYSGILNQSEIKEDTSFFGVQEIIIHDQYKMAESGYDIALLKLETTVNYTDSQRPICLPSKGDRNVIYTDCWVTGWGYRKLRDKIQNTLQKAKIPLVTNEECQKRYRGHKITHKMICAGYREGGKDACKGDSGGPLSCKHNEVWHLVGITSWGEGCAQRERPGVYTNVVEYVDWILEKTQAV
Numbers only, in nM.

chemical_string=C[C@@H]1CCC[C@H](N2CCC(c3c(F)ccc(Cl)c3F)=CC2=O)c2cc(ccn2)-c2[nH]ncc2NC1=O measured_parameter=Ki unit_spec=nM recorded_number=548
chemical_string=C[C@@H]1CCC[C@H](N2CCC(c3cc(Cl)ccc3-n3ccnn3)=CC2=O)c2cc(ccn2)-c2c(cnn2C2CC2)NC1=O measured_parameter=Ki unit_spec=nM recorded_number=1.1
chemical_string=C[C@@H]1CCC[C@H](N2CCC(c3cc(Cl)ccc3-n3ccnc3)=CC2=O)c2cc(ccn2)-c2c(cnn2C)NC1=O measured_parameter=Ki unit_spec=nM recorded_number=2.7
chemical_string=C[C@@H]1CCC[C@H](N2CCC(c3cc(Cl)ccc3-n3ccnn3)=CC2=O)c2cc(ccn2)-c2c(cnn2CC(F)F)NC1=O measured_parameter=Ki unit_spec=nM recorded_number=11

Now for the molecule whose Ki we want.
Prompt: What does the data say about its Ki? Entry: "C[C@@H]1CCC[C@H](N2CCC(c3cc(Cl)ccc3-n3cc(Cl)nn3)=CC2=O)c2cc(ccn2)-c2c(cnn2C(F)F)NC1=O"
Response: 0.07

====

MEASUREMENT PROTOCOL: Half life in Sprague-Dawley rat at 1.10 mg/kg, po or 0.55 mg/kg, iv
Assay type: ADME, organism-based
COND: in vivo, dose 1.1 mg/kg
MEASURED PARAMETER: half-life (min)
Give bare numbers, in min.

Prompt: What does the data say about its half-life? Entry: "C[C@@H]1CCC[C@H](N2CCC(c3cc(Cl)ccc3-n3ccnn3)=CC2=O)c2cc(ccn2)-c2c(cnn2C(F)F)NC1=O"
Response: 30

====

MEASUREMENT PROTOCOL: Fraction unbound in Sprague-Dawley rat plasma
Assay type: ADME, cell-free
MEASURED PARAMETER: fraction unbound
Numbers only.

Prompt: What does the data say about its fraction unbound? Entry: C[C@@H]1CCC[C@H](n2cnc(-c3cc(Cl)ccc3-n3cc(Cl)nn3)cc2=O)c2cc(ccn2)-c2c(cnn2C(F)F)NC1=O [MILVEXIAN]
Response: 0.029

====

ASSAYED SYSTEM: Coagulation factor VII (Homo sapiens, UniProt P08709)
Sequence (P08709 61-212 limits assumed): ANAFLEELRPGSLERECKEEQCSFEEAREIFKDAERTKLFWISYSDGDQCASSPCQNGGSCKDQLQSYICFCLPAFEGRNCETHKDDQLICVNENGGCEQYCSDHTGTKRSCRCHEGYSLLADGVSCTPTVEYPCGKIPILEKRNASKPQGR
Sequence (P08709 213-466 limits assumed): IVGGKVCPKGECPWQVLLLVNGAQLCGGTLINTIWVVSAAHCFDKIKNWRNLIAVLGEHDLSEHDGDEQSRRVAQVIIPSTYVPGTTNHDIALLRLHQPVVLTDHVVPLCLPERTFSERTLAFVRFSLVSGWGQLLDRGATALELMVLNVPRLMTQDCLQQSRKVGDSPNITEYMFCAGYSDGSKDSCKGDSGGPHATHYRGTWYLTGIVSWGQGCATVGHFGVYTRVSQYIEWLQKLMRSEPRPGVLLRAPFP
MEASUREMENT PROTOCOL: Binding affinity to recombinant human coagulation factor 7a assessed as inhibition constant using N-alpha-Benzyloxycarbonyl-D-arginyl-glycyl-Larginine p-Nitroaniline as substrate measured upto 120 mins by coupled enzyme assay
MEASURED PARAMETER: pKi
One number for each entry, as −log10 of the molar value.

Prompt: What does the data say about its pKi? Entry: C[C@@H]1CCC[C@H](n2cnc(-c3cc(Cl)ccc3-n3cc(Cl)nn3)cc2=O)c2cc(ccn2)-c2c(cnn2C(F)F)NC1=O [MILVEXIAN]
Response: 5.92

====

ASSAYED SYSTEM: UniProtKB P08311
Sequence (P08311 whole entry): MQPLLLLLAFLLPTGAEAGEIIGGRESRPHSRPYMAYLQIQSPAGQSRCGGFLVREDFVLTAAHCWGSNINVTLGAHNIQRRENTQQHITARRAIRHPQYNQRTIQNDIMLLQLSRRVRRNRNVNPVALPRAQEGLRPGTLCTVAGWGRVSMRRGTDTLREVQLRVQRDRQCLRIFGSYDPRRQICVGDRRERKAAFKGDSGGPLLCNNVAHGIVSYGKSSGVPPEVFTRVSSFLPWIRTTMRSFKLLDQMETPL
MEASUREMENT PROTOCOL: Binding affinity to human neutrophil cathepsin G assessed as inhibition constant using Succinyl-L-alanyl-L-alanyl-L-prolyl-Lphenylalanine p-Nitroaniline as substrate measured upto 120 mins by spectrophotometric analysis
pKi: −log10 of the molar value.
MEASURED PARAMETER: pKi

Prompt: What does the data say about its pKi? Entry: C[C@@H]1CCC[C@H](n2cnc(-c3cc(Cl)ccc3-n3cc(Cl)nn3)cc2=O)c2cc(ccn2)-c2c(cnn2C(F)F)NC1=O [MILVEXIAN]
Response: < 4.70

====

ASSAYED SYSTEM: Tissue-type plasminogen activator (Homo sapiens)
Sequence (P00750 whole entry): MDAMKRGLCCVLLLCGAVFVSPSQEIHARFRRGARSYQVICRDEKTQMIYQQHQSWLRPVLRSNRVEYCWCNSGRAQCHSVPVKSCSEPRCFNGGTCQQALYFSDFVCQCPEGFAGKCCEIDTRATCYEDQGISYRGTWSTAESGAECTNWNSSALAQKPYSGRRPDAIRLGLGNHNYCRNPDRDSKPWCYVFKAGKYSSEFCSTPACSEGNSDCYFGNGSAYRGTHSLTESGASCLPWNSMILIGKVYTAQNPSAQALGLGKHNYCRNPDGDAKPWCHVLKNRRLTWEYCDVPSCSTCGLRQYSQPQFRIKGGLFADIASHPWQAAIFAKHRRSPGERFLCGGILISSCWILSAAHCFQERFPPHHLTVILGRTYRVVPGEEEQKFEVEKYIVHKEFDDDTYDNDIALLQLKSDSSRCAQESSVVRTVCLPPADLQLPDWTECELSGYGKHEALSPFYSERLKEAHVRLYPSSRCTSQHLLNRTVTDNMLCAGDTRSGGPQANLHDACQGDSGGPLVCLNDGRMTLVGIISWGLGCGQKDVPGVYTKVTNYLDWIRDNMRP
MEASURED PARAMETER: Ki (nM)
Give bare numbers, in nM.

Prompt: Give Tissue-type plasminogen activator (Homo sapiens) Ki for "C[C@@H]1CCC[C@H](n2cnc(-c3cc(Cl)ccc3-n3cc(Cl)nn3)cc2=O)c2cc(ccn2)-c2c(cnn2C(F)F)NC1=O"
Response: 2300

====

MEASUREMENT PROTOCOL: Clearance in cynomolgus monkey at 1.50 mg/kg, po or 0.50 mg/kg, iv
Format: ADME, organism-based, Macaca fascicularis
COND: in vivo, dose 1.5 mg/kg
MEASURED PARAMETER: clearance (L/h/kg)
Give bare numbers, in L/h/kg.

Prompt: What does the data say about its clearance? Entry: C[C@@H]1CCC[C@H](n2cnc(-c3cc(Cl)ccc3-n3cc(Cl)nn3)cc2=O)c2cc(ccn2)-c2c(cnn2C(F)F)NC1=O [MILVEXIAN]
Response: 0.618

====

MEASUREMENT PROTOCOL: Metabolic stability in cynomolgus monkey liver microsomes assessed as half life
Type: ADME, Macaca fascicularis, Microsome
Parameters: dose or concentration left out as unconfirmed
MEASURED PARAMETER: half-life (min)
Answers are plain numbers, in min.

Prompt: What does the data say about its half-life? Entry: C[C@@H]1CCC[C@H](n2cnc(-c3cc(Cl)ccc3-n3cc(Cl)nn3)cc2=O)c2cc(ccn2)-c2c(cnn2C(F)F)NC1=O [MILVEXIAN]
Response: 83

====

ASSAYED SYSTEM: UniProt P23946
Sequence (P23946 whole entry): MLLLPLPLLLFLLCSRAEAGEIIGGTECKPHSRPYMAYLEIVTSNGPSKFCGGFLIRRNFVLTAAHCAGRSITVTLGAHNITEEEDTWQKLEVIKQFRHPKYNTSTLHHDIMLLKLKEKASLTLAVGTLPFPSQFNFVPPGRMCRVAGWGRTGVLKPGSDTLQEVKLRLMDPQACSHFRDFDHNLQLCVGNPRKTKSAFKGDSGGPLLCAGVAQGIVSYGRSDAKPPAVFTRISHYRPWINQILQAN
pKi: −log10 of the molar value.
MEASURED PARAMETER: pKi

Prompt: Give UniProt P23946 pKi for C[C@@H]1CCC[C@H](n2cnc(-c3cc(Cl)ccc3-n3cc(Cl)nn3)cc2=O)c2cc(ccn2)-c2c(cnn2C(F)F)NC1=O [MILVEXIAN]
Response: < 4.89

====

MEASUREMENT PROTOCOL: Oral bioavailability in cynomolgus monkey at 1.50 mg/kg
Format: ADME, organism-based, Macaca fascicularis
COND: in vivo, dose 1.5 mg/kg
MEASURED PARAMETER: bioavailability (%)
One number for each entry, in %.

Prompt: What does the data say about its bioavailability? Entry: C[C@@H]1CCC[C@H](n2cnc(-c3cc(Cl)ccc3-n3cc(Cl)nn3)cc2=O)c2cc(ccn2)-c2c(cnn2C(F)F)NC1=O [MILVEXIAN]
Response: 32

====

MEASUREMENT PROTOCOL: Volume of distribution at steady state in Sprague-Dawley rat at 1.06 mg/kg, po or 0.53 mg/kg, iv
Type: ADME, organism-based
COND: in vivo, read-out: Vdss
MEASURED PARAMETER: Vd (L/kg)
Numbers only, in L/kg.

Prompt: What does the data say about its Vd? Entry: "C[C@@H]1CCC[C@H](N2CCC(c3cc(Cl)ccc3-n3cc(Cl)nn3)=CC2=O)c2cc(ccn2)-c2c(cnn2C(F)F)NC1=O"
Response: 1.4

====

MEASUREMENT PROTOCOL: Half life in cynomolgus monkey at 1.50 mg/kg, po or 0.50 mg/kg, iv
Assay type: ADME, organism-based, Macaca fascicularis
COND: in vivo, dose 1.5 mg/kg
MEASURED PARAMETER: half-life
Quick note: number first, unit second.

Prompt: What does the data say about its half-life? Entry: C[C@@H]1CCC[C@H](n2cnc(-c3cc(Cl)ccc3-n3cc(Cl)nn3)cc2=O)c2cc(ccn2)-c2c(cnn2C(F)F)NC1=O [MILVEXIAN]
Response: 2.7 h

====

MEASUREMENT PROTOCOL: Metabolic stability in human liver microsomes assessed as half life
Format: ADME, Microsome
So I've got a bunch of compounds here, and I need their half-life values.

chemical_string=C[C@@H]1CCC[C@H](N2CCC(c3cc(Cl)ccc3-n3ccnn3)=CC2=O)c2cc(ccn2)-c2c(cnn2C2CCC2)NC1=O result="0.1 h"
chemical_string=C[C@@H]1CCC[C@H](n2cnc(-c3cc(Cl)ccc3-n3cc(Cl)nn3)cc2=O)c2cc(ccn2)-c2c(cnn2C(F)F)NC1=O result="> 2 h"

Prompt: What does the data say about its half-life? Entry: "C[C@@H]1CCC[C@H](N2CCC(c3cc(Cl)ccc3-n3cc(Cl)nn3)=CC2=O)c2cc(ccn2)-c2c(cnn2C)NC1=O"
Response: 1.08 h

====

MEASUREMENT PROTOCOL: Volume of distribution at steady state in Sprague-Dawley rat at 1.10 mg/kg, po or 0.55 mg/kg, iv
Format: ADME, organism-based
COND: in vivo, dose 1.1 mg/kg, read-out: Vdss
MEASURED PARAMETER: Vd (L/kg)
Answers are plain numbers, in L/kg.

Prompt: What does the data say about its Vd? Entry: "C[C@@H]1CCC[C@H](N2CCC(c3cc(Cl)ccc3-n3ccnn3)=CC2=O)c2cc(ccn2)-c2c(cnn2C(F)F)NC1=O"
Response: 1.2
